Measured RGA Efficacy (%), listed per entry.
Biological target: T1, murine IL-11 (mouse, UniProt P47873 22-199)
T1 sequence: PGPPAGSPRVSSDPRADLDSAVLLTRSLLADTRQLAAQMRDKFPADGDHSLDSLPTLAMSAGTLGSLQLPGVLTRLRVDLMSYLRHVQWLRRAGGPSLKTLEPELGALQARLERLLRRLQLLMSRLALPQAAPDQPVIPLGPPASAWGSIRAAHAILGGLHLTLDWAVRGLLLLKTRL
Experiment: cell-based or functional assay

{"Binder": "TPP-26317 (antibody, V domains shown) VH: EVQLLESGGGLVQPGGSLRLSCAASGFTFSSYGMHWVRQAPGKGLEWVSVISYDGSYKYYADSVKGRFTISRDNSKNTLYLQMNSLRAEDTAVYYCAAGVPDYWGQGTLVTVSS VL: QSVLTQPPSASGTPGQRVTISCTGSSSNIGAEYDVHWYQQLPGTAPKLLIYSNNERPSGVPDRFSGSKSGTSASLAISGLRSEDEADYYCAAWDDSLNGPVFGGGTKLTVL", "RGA Efficacy (%)": 93.2}
{"Binder": "TPP-26316 (antibody, V domains shown) VH: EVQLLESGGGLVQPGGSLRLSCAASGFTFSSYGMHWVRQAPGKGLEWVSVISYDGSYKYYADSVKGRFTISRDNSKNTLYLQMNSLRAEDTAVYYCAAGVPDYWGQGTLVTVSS VL: QSVLTQPPSASGTPGQRVTISCTGSSSNIGAGYDVHWYQQLPGTAPKLLIYSNNERPSGVPDRFSGSKSGTSASLAISGLRSEDEADYYCAAWDMSLNGPVFGGGTKLTVL", "RGA Efficacy (%)": 90.4}
{"Binder": "TPP-26324 (antibody, V domains shown) VH: EVQLLESGGGLVQPGGSLRLSCAASGFTFSSYGMHWVRQAPGKGLEWVSVISYDGSYKYYRDSVKGRFTISRDNSKNTLYLQMNSLRAEDTAVYYCAAGVPDYWGQGTLVTVSS VL: QSVLTQPPSASGTPGQRVTISCTGSSSNIGAGYDVHWYQQLPGTAPKLLIYSNNERPSGVPDRFSGSKSGTSASLAISGLRSEDEADYYCAAWDDSLNGPVFGGGTKLTVL", "RGA Efficacy (%)": 92.4}
{"Binder": "TPP-26325 (antibody, V domains shown) VH: EVQLLESGGGLVQPGGSLRLSCAASGFTFSWYGMHWVRQAPGKGLEWVSVISYDGSYKYYADSVKGRFTISRDNSKNTLYLQMNSLRAEDTAVYYCAAGVPDYWGQGTLVTVSS VL: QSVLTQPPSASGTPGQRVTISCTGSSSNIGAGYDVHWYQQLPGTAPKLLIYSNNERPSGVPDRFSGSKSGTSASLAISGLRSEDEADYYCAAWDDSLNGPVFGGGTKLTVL", "RGA Efficacy (%)": 93}
{"Binder": "TPP-26330 (antibody, V domains shown) VH: EVQLLESGGGLVQPGGSLRLSCAASGFTFSFYGMHWVRQAPGKGLEWVSVISYDGSYKYYADSVKGRFTISRDNSKNTLYLQMNSLRAEDTAVYYCAAGVPDYWGQGTLVTVSS VL: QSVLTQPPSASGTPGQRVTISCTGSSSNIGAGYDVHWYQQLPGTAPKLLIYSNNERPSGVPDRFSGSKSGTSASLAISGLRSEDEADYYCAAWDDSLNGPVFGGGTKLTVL", "RGA Efficacy (%)": 88.2}
{"Binder": "TPP-26299 (antibody, V domains shown) VH: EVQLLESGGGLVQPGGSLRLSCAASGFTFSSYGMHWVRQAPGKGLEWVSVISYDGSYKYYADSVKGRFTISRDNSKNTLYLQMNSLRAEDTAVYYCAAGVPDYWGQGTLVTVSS VL: QSVLTQPPSASGTPGQRVTISCTGSSSNIGAGYDVHWYQQLPGTAPKLLIYSNNERPSGVPDRFSGSKSGTSASLAISGLRSEDEADYYCAAWDDSLYGPVFGGGTKLTVL", "RGA Efficacy (%)": 96.9}
{"Binder": "TPP-26307 (antibody, V domains shown) VH: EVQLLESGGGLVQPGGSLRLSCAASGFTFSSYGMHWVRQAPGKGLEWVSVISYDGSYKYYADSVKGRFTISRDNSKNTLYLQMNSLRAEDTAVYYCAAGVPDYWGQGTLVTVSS VL: QSVLTQPPSASGTPGQRVTISCTGSSSNIGAGYDVHWYQQLPGTAPKLLIYSNNERPSGVPDRFSGSKSGTSASLAISGLRSEDEADYYCAAWDISLNGPVFGGGTKLTVL", "RGA Efficacy (%)": 92.3}
{"Binder": "TPP-26308 (antibody, V domains shown) VH: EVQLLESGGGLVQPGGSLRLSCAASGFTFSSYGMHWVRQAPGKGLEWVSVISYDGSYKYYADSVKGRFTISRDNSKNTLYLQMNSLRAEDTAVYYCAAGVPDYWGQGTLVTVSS VL: QSVLTQPPSASGTPGQRVTISCTGSSSNIGAGYDVHWYQQLPGTAPKLLIYSNNERPSGVPDRFSGSKSGTSASLAISGLRSEDEADYYCAAWDVSLNGPVFGGGTKLTVL", "RGA Efficacy (%)": 91.6}
{"Binder": "TPP-26327 (antibody, V domains shown) VH: EVQLLESGGGLVQPGGSLRLSCAASGFTFSSYGMHWVRQAPGKGLEWVSVIRYDGSYKYYADSVKGRFTISRDNSKNTLYLQMNSLRAEDTAVYYCAAGVPDYWGQGTLVTVSS VL: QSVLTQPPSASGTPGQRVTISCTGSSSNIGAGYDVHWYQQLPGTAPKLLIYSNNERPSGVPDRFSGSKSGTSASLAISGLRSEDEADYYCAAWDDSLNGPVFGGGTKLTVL", "RGA Efficacy (%)": 38}
{"Binder": "TPP-26311 (antibody, V domains shown) VH: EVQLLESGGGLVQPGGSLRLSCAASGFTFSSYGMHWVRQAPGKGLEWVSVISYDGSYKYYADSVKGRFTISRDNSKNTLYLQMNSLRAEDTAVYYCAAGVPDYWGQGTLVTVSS VL: QSVLTQPPSASGTPGQRVTISCTGSSSNIGAGYDHHWYQQLPGTAPKLLIYSNNERPSGVPDRFSGSKSGTSASLAISGLRSEDEADYYCAAWDDSLNGPVFGGGTKLTVL", "RGA Efficacy (%)": 86.2}
